- TARGET_UNDER_TEST: T1, Human Siglec-15 overexpressed on HEK293T cells (HEK293T-hu-S15) (human, UniProt Q6ZMC9 20-328)
- T1 construct: whole, on cells; also called HEK293T-hu-S15 cell line
- T1 sequence (looked up): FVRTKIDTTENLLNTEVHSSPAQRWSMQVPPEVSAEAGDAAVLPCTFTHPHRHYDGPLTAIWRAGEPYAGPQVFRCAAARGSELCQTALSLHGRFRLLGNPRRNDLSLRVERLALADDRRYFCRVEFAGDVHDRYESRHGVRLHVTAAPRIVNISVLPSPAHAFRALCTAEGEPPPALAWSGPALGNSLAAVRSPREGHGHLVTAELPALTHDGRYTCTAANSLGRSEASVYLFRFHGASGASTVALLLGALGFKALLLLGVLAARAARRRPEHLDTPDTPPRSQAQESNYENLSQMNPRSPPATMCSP
- RUN_DESCRIPTION: flow cytometry on HEK293T-hu-S15 cells, detection with anti-human IgG (Fc specific)-FITC, average fluorescence intensity
pEC50: −log10 of the molar value.
PROPERTY_MEASURED: pEC50

BINDER | PROPERTY_MEASURED | NUMERIC_READOUT
255C12B10 chimeric antibody (antibody, V domains shown, Mouse variable regions combined with human IgG1 (N297A) constant regions) VH: EVQLQQSGPELVKPGASVKMSCKASGYTFTGYNMNWVKQSHGKSLEWIGYINPNNGGTRYNQKFKGKATLTINKSSSTAYMELRSLTSEDSAVYYCARDYGIDYWGQGTTLTVSS VL: EIQMTQSPSSMSASLGDRITITCQATQDIVKNLNWYQQKPGKPPSFLIYYATELAEGVPSRFSGSGSGSDYSLTISNLESEDFADYYCLQFYEFPYTFGGGTKLEIK | pEC50 | 8.42
21F6C6 chimeric antibody (antibody, human IgG1, V domains shown, also called 21F6C6-mHL) VH: EVMLVESGGGLVKPGGSLKLSCAASGFTFSSYAMSWVRQSPEKRLEWVATISSGGSLIYYPDSVTGRFTISRDNAKSTLYLQMSSLRSEDTAMYYCVRHGYYYGDSTLYYAMDYWGPGTSVTVSS VL: DIVLTQSPASLAVSLGQRATISCKASQSVDYDGDSYMNWYQQKPGQPPKLLIYAASNLESGIPARFSGSGSGTDFTLNIHPVEEEDAATYYCQQSNEAPLTFGAGTKLELK | pEC50 | 8.93

The reported numbers originate from patent US20240092897A1.
